- test_target: T1, human CD47 (R & D systems) (human, UniProt Q08722 19-139)
- T1 construct: The Octet analyte was bought (R&D Systems); also called Human CD47 antigen; hCD47
- assay_name: BLI (Octet), His-tagged VHH on anti-penta-His tips, soluble human CD47
parameter: Kd (pM)

(P) A09-10 (VHH, not shown: C-terminal His-tag) VHH: QVQLVESGGGLVQAGGSLRLSCAASGGGRTFSNYALGWFRQAPGKEREFVAAISRSGGNINYADSAKGRFTISRDNFKNTTYLQMSSLKPEDTAVYYCAAHYLLLPSYISTSTNMYNYWGQGTQVTVSS
(Q) A09-61 (VHH, not shown: C-terminal His-tag) VHH: QVQLVESGGGLVQAGGSLRLSCAASGYGVNSYALGWFRQAPGKEREFVAAISRSGGNINYADSAKGRFTISRDNFKNTTYLQMSSLKPEDTAVYYCAAHYLLLPSYISFASKMYNYWGQGTQVTVSS
(R) A09-006 (VHH, also called A09-06; not shown: C-terminal His-tag) VHH: QVQLVESGGGLVQAGGSLRLSCAASGIRFFGSALGWFRQAPGKEREFVAAISRSGGNINYADSAKGRFTISRDNFKNTTYLQMSSLKPEDTAVYYCAAHYLLLPSYISTSTNMYNYWGQGTQVTVSS
(S) A09-08 (VHH, not shown: C-terminal His-tag) VHH: QVQLVESGGGLVQAGGSLRLSCAASGYGVNSYALGWFRQAPGKEREFVAAISRSGGNINYADSAKGRFTISRDNFKNTTYLQMSSLKPEDTAVYYCAAHYLLLPSYISTSTNMYNYWGQGTQVTVSS
Descending by Kd please, for everything listed above. Please respond with the labels ordered as the question requires.
Q, S, P, R
(Q: 1770 pM, S: 63 pM, P: 26.7 pM, R: 11.4 pM)
